# Test system: woolly cupgrass
# Test details: Test C pre-/postemergence test
# Format: in vivo, Eriochloa villosa
# Run parameters: Preemergence, 31 g ai/ha; scale 0 to 100 (0 no effect, 100 complete control)
Each entry below carries its recorded Plant response rating, Cupgrass, Woolly.
Experimental endpoint: Plant response rating, Cupgrass, Woolly

>>> observed_result("C#CCOc1c(CS(=O)(=O)c2cccc[n+]2[O-])c(C(F)(F)F)nn1C")
0
>>> observed_result("CC(Oc1c(C[S+]([O-])c2ccc(Cl)c[n+]2[O-])c(C(F)(F)F)nn1C)C(F)(F)F (stereo not shown)")
80
>>> observed_result("Cn1nc(C(F)(F)F)c(C[S+]([O-])c2cccc[n+]2[O-])c1OCC(F)(F)F (racemic)")
70
>>> observed_result("CC(Oc1c(C[S+]([O-])c2cccc[n+]2[O-])c(C(F)(F)F)nn1C)C(F)(F)F (stereo not shown)")
80

====

# System: common ragweed
# Test details: Test C pre-/postemergence test
# Type: in vivo, Ambrosia elation
# Run parameters: Preemergence, 31 g ai/ha; scale 0 to 100 (0 no effect, 100 complete control)
Experimental endpoint: Plant response rating, Ragweed

>>> observed_result("Cn1nc(C(F)(F)C(F)(F)F)c(C[S+]([O-])c2cccc[n+]2[O-])c1OCC(F)(F)F (stereo not shown)")
50
>>> observed_result("Cn1nc(C(F)(F)F)c(C[S+]([O-])c2ccc(F)c[n+]2[O-])c1Cl (stereo not shown)")
0
>>> observed_result("Cc1cc[n+]([O-])c(S(=O)(=O)Cc2c(C(F)(F)F)nn(C)c2OCC(F)F)c1")
60
>>> observed_result("CCn1nc(C(F)(F)F)c(C[S+]([O-])c2cc(C)cc[n+]2[O-])c1OCC(F)(F)F (racemic)")
100

====

# System: Surinam grass
# Test details: Test C pre-/postemergence test
# Format: in vivo, Brachiaria decumbens
# Run parameters: 62 g ai/ha, Preemergence; scale 0 to 100
Field 'label' (enum: 1.0 / 0.0). Set to 1.0 when Surinam Grass plant response rating is strictly under 80; else 0.0.

>>> qualitative_label("Cn1nc(C(F)(F)F)c(C(Cl)S(=O)(=O)c2cccc[n+]2[O-])c1OC(F)F (stereo not drawn)")
1.0
>>> qualitative_label("CCn1nc(C(F)(F)F)c(C[S+]([O-])c2cccc[n+]2[O-])c1OCC(F)(F)F (racemic)")
0.0
>>> qualitative_label("Cn1nc(C(F)(F)F)c(C[S+]([O-])c2cccc[n+]2[O-])c1OCC(F)(F)F (racemic)")
0.0
>>> qualitative_label("Cn1nc(C(F)(F)C(F)(F)F)c(C[S+]([O-])c2cccc[n+]2[O-])c1OCC(F)(F)F (stereo not drawn)")
0.0
>>> qualitative_label("Cn1nc(C(F)(F)F)c(CS(=O)(=O)c2cccc[n+]2[O-])c1OCC(F)(F)F")
1.0
>>> qualitative_label("Cn1nc(C(F)(F)F)c(C[S+]([O-])c2ccc(Cl)c[n+]2[O-])c1Cl (racemic)")
0.0
>>> qualitative_label("CCn1nc(C(F)(F)F)c(CS(=O)(=O)c2cc(C)cc[n+]2[O-])c1OCC(F)(F)F")
0.0
>>> qualitative_label("Cn1nc(C(F)(F)F)c(CS(=O)(=O)c2cc(C(C)(C)C)cc[n+]2[O-])c1OC(F)F")
1.0
>>> qualitative_label("CCn1nc(C(F)(F)F)c(CS(=O)(=O)c2cccc[n+]2[O-])c1OCC(F)(F)F")
0.0
>>> qualitative_label("CC(c1c(C(F)(F)F)nn(C)c1OCC(F)(F)F)S(=O)(=O)c1cccc[n+]1[O-] (racemic)")
0.0
>>> qualitative_label("Cc1cc[n+]([O-])c(S(=O)(=O)Cc2c(C(F)(F)F)nn(C)c2OCC(F)F)c1")
0.0
>>> qualitative_label("Cc1cc[n+]([O-])c([S+]([O-])Cc2c(C(F)(F)F)nn(C)c2Cl)c1 (racemic)")
1.0
>>> qualitative_label("CC(Oc1c(C[S+]([O-])c2cccc[n+]2[O-])c(C(F)(F)F)nn1C)C(F)(F)F (stereo not drawn)")
0.0
>>> qualitative_label("Cn1nc(C(F)(F)F)c(C[S+]([O-])c2cc(C(F)(F)F)cc[n+]2[O-])c1Cl (racemic)")
1.0

====

# System: crabgrass
# Test details: Test C pre-/postemergence test
# Type: in vivo, Digitaria sanguinalis
# Run parameters: Preemergence, 31 g ai/ha; scale 0 to 100 (0 no effect, 100 complete control)
Experimental endpoint: Plant response rating, Crabgrass, Large

>>> observed_result("Cc1cc[n+]([O-])c(S(=O)(=O)Cc2c(C(F)(F)F)nn(C)c2OCC(F)F)c1")
20
>>> observed_result("Cn1nc(C(F)(F)F)c(CS(=O)(=O)c2cccc[n+]2[O-])c1OCC(F)F")
60
>>> observed_result("CC(c1c(C(F)(F)F)nn(C)c1OCC(F)(F)F)S(=O)(=O)c1cccc[n+]1[O-] (racemic)")
100
>>> observed_result("Cn1nc(C(F)(F)F)c(C[S+]([O-])c2ccc(Cl)c[n+]2[O-])c1OCC(F)F (centres unmarked)")
80
>>> observed_result("Cn1nc(C(F)(F)F)c(C[S+]([O-])c2ccc(F)c[n+]2[O-])c1OC(F)F (centres unmarked)")
50
>>> observed_result("CCn1nc(C(F)(F)F)c(CS(=O)(=O)c2cc(C)cc[n+]2[O-])c1OCC(F)(F)F")
98
>>> observed_result("Cc1cc[n+]([O-])c(S(=O)(=O)Cc2c(C(F)(F)F)nn(C)c2Cl)c1")
98
>>> observed_result("Cn1nc(C(F)(F)F)c(C[S+]([O-])c2cc(Br)cc[n+]2[O-])c1Cl (racemic)")
85
>>> observed_result("Cn1nc(C(F)(F)F)c(C[S+]([O-])c2cccc[n+]2[O-])c1OCC(F)F (centres unmarked)")
40
>>> observed_result("CC(C)c1cc[n+]([O-])c([S+]([O-])Cc2c(C(F)(F)F)nn(C)c2OC(F)F)c1 (centres unmarked)")
80
>>> observed_result("Cc1cc[n+]([O-])c(S(=O)(=O)Cc2c(C(F)(F)F)nn(C)c2OCC(F)(F)F)c1")
100
>>> observed_result("Cc1cc[n+]([O-])c([S+]([O-])Cc2c(C(F)(F)F)nn(C)c2Cl)c1 (racemic)")
85
>>> observed_result("Cc1cc[n+]([O-])c(S(=O)(=O)C(Cl)c2c(C(F)(F)F)nn(C)c2Cl)c1 (racemic)")
98
>>> observed_result("Cc1cc([S+]([O-])Cc2c(C(F)(F)F)nn(C)c2OCC(F)(F)F)[n+]([O-])cc1Cl (centres unmarked)")
85

====

# System: bermudagrass
# Test details: Test C pre-/postemergence test
# Assay type: in vivo, Cynodon dactylon
# Run parameters: Postemergence, 62 g ai/ha; scale 0 to 100, 0 no effect, 100 complete control
Experimental endpoint: Plant response rating, Bermudagrass

>>> observed_result("Cn1nc(C(F)(F)F)c(C[S+]([O-])c2ccc(Cl)c[n+]2[O-])c1OCC(F)(F)F (racemic)")
0
>>> observed_result("Cc1cc[n+]([O-])c(S(=O)(=O)Cc2c(C(F)(F)F)nn(C)c2OC(F)F)c1")
0
>>> observed_result("CCn1nc(C(F)(F)F)c(C[S+]([O-])c2cccc[n+]2[O-])c1OCC(F)(F)F (racemic)")
0
>>> observed_result("CCn1nc(C(F)(F)F)c(C(C)S(=O)(=O)c2cccc[n+]2[O-])c1OCC(F)(F)F (stereo not drawn)")
0
>>> observed_result("CC(c1c(C(F)(F)F)nn(C)c1OC(F)F)S(=O)(=O)c1cccc[n+]1[O-] (stereo not drawn)")
40
>>> observed_result("Cn1nc(C(F)(F)F)c(C[S+]([O-])c2cccc[n+]2[O-])c1OCC(F)(F)C(F)(F)F (stereo not drawn)")
0

====

# Tested on: Goosegrass
# Test details: Test C pre-/postemergence test
# Assay type: in vivo, Eleusin indica
# Run parameters: 31 g ai/ha, Preemergence; scale 0 to 100
Experimental endpoint: Goosegrass plant response rating

>>> observed_result("Cn1nc(C(F)(F)F)c(C[S+]([O-])c2cccc[n+]2[O-])c1OC(F)F (centres unmarked) [Compound 3]")
85
>>> observed_result("CC(c1c(C(F)(F)F)nn(C)c1OC(F)F)S(=O)(=O)c1cccc[n+]1[O-] (centres unmarked) [Compound 5]")
100
>>> observed_result("Cn1nc(C(F)(F)F)c(C[S+]([O-])c2ccc(Cl)c[n+]2[O-])c1OC(F)F (centres unmarked) [Compound 6]")
98
>>> observed_result("Cn1nc(C(F)(F)F)c(C[S+]([O-])c2ccc(Br)c[n+]2[O-])c1OC(F)F (racemic) [Compound 16]")
98
>>> observed_result("Cn1nc(C(F)(F)F)c(C[S+]([O-])c2cccc[n+]2[O-])c1Cl (centres unmarked) [Compound 8]")
98
>>> observed_result("Cn1nc(C(F)(F)F)c(C(Cl)S(=O)(=O)c2cccc[n+]2[O-])c1Cl (centres unmarked) [Compound 12]")
100
>>> observed_result("CC(c1c(C(F)(F)F)nn(C)c1Cl)S(=O)(=O)c1cccc[n+]1[O-] (centres unmarked) [Compound 10]")
100
>>> observed_result("Cn1nc(C(F)(F)F)c(CS(=O)(=O)c2cccc[n+]2[O-])c1OC(F)F [Compound 4]")
100

Attribution: patent US20100298141A1
